Field: pIC50. Provide a value for each of the molecules that follow.
tested on: L. donovani-infected THP-1 macrophages, intracellular amastigote imaging; assay: antileishmanial activity in infected THP-1 macrophages – imaging, THP-1 host macrophages, host toxicity (AID 1159564); details: measured here: THP-1 host cell toxicity
pIC50: −log10 of the molar value.

Request: Respond only with pIC50 recorded for `COc1ccc2nc(N(Cc3cccnc3)C(=O)C3CCC3)sc2c1`
Result: < 4.30

Request: Respond only with pIC50 recorded for `CN(C)c1ncc(-c2cncn2CCOc2ccc(Cl)cc2)cn1`
Result: < 4.30

Request: Respond only with pIC50 recorded for `O=C(CSc1ccc(-c2ccccn2)nn1)Nc1ccc(Cl)cc1`
Result: < 4.30
